Each recorded value in this set is attributed to ChEMBL document CHEMBL1128806.

The next entries give measured Ki for 3',5'-cyclic-AMP phosphodiesterase 4B (Homo sapiens).
Give your result in nM as a bare value.

# structureSmiles, targetSystem, Ki (nM)
measured = [
    ("COc1ccc([C@@H]2CN(C(=O)OCc3ccccc3)C[C@H]2NS(C)(=O)=O)cc1OC1CCCC1", "3',5'-cyclic-AMP phosphodiesterase 4B (Homo sapiens)", 1470),
]

Consider the molecule COC(=O)[C@@H]1CN(C(=O)OC(C)C)C[C@H]1c1ccc(OC)c(OC2CCCC2)c1 and give its measured Ki. 40

Consider the molecule COC(=O)N1C[C@@H](C(=O)OC(C)(C)C)[C@H](c2ccc(OC)c(OC3CCCC3)c2)C1 and give its measured Ki. 4630

Consider the molecule COC(=O)[C@@H]1CN(C=O)C[C@H]1c1ccc(OC)c(OC2CCCC2)c1 and give its measured Ki. 810

Consider the molecule CCC(=O)[C@@H]1CN(C(=O)OC)C[C@H]1c1ccc(OC)c(OC2CCCC2)c1 and give its measured Ki. 350
